Record form. Attribute: microsomal CLint. Fill in for each entry.
test: Intrinsic clearance in human liver microsomes; type: ADME, Microsome; settings: read-out: CLH
Numbers only, in µL/min/mg.

// worked examples, microsomal CLint included
INSERT INTO assay_data (molecule, measurement_type, experimental_value) VALUES
  ('C=CC(=O)N1C[C@@H](n2nc(C#Cc3ccc4c(c3)ncn4C3CC3)c(C(N)=O)c2NC)C[C@@H]1COC', 'microsomal CLint', 47.4),
  ('C=CC(=O)N1C[C@@H](n2nc(C#Cc3cc4ncn(C5CC5)c4cc3F)c(C(N)=O)c2NC)C[C@@H]1COC', 'microsomal CLint', 97.1),
  ('C=CC(=O)N1C[C@@H](n2nc(C#Cc3cc4ncn(C5CC5)c4cc3Cl)c(C(N)=O)c2NC)C[C@@H]1COC', 'microsomal CLint', 106);

Next:
Report microsomal CLint for C=CC(=O)N1C[C@@H](n2nc(C#Cc3c(F)cc4c(ncn4C4CC4)c3F)c(C(N)=O)c2NC)C[C@@H]1COC [RESIGRATINIB] please. 59.6

###

test: Solubility of compound in FeSSIF; type: ADME
Measurement type: solubility (µg/mL)
One number for each entry, in µg/mL.

Report solubility for C=CC(=O)N1C[C@@H](n2nc(C#Cc3c(F)cc4c(ncn4C4CC4)c3F)c(C(N)=O)c2NC)C[C@@H]1COC please. 300

###

test: Oral bioavailability in Beagle dog at 15 mg/kg administrated at 0.25 to 24 hrs by LC-MS/MS analysis; type: ADME, organism-based, Canis lupus familiaris; conditions: in vivo, time 0.25-24 hrs
Measurement type: bioavailability (%)
Give bare numbers, in %.

INSERT INTO measurements (compound, unit_label, experimental_value) VALUES
  ('C=CC(=O)N1C[C@@H](n2nc(C#Cc3cc4ncn(C5CC5)c4cc3F)c(C(N)=O)c2NC)C[C@@H]1COC', '%', 23.5);

Next:
Report bioavailability for C=CC(=O)N1C[C@@H](n2nc(C#Cc3c(F)cc4c(ncn4C4CC4)c3F)c(C(N)=O)c2NC)C[C@@H]1COC [RESIGRATINIB] please. 17.5

###

experiment: Half life in Beagle dog at 5 mg/kg,iv administrated at 0.25 to 24 hrs by LC-MS/MS analysis; type: ADME, organism-based, Canis lupus familiaris; settings: in vivo, time 0.25-24 hrs
Measurement type: half-life (h)
Numbers only, in h.

// worked examples, half-life included
INSERT INTO measurements (smiles_entry, experimental_value) VALUES
  ('C=CC(=O)N1C[C@@H](n2nc(C#Cc3ccc4c(c3)ncn4C3CC3)c(C(N)=O)c2NC)C[C@@H]1COC', 6.46),
  ('C=CC(=O)N1C[C@@H](n2nc(C#Cc3c(F)cc4c(ncn4C4CC4)c3F)c(C(N)=O)c2NC)C[C@@H]1COC', 6.89),
  ('C=CC(=O)N1C[C@@H](n2nc(C#Cc3cc4ncn(C5CC5)c4cc3Cl)c(C(N)=O)c2NC)C[C@@H]1COC', 4.94);

Next:
Report half-life for C=CC(=O)N1C[C@@H](n2nc(C#Cc3cc4ncn(C5CC5)c4cc3F)c(C(N)=O)c2NC)C[C@@H]1COC please. 11.4

###

assay: Half life in Sprague-Dawley rat at 5 mg/kg,iv administrated at 0.25 to 24 hrs by LC-MS/MS analysis; assay type: ADME, organism-based; details: in vivo, time 0.25-24 hrs
Measurement type: half-life

// worked examples, half-life included
INSERT INTO results (smiles_entry, experimental_value) VALUES
  ('C=CC(=O)N1C[C@@H](n2nc(C#Cc3cc4ncn(C5CC5)c4cc3Cl)c(C(N)=O)c2NC)C[C@@H]1COC', '6.17 h'),
  ('C=CC(=O)N1C[C@@H](n2nc(C#Cc3ccc4c(c3)ncn4C3CC3)c(C(N)=O)c2NC)C[C@@H]1COC', '4.88 h'),
  ('C=CC(=O)N1C[C@@H](n2nc(C#Cc3c(F)cc4c(ncn4C4CC4)c3F)c(C(N)=O)c2NC)C[C@@H]1COC', '5.46 h');

Next:
Report half-life for C=CC(=O)N1C[C@@H](n2nc(C#Cc3cc4ncn(C5CC5)c4cc3F)c(C(N)=O)c2NC)C[C@@H]1COC please. 8.85 h

###

Record form. Attribute: hepatocyte CLint. Fill in for each entry.
assay: Intrinsic clearance in human hepatocyte measured per 10^6 cells; format: ADME, cell-based; details: hepatocytes, read-out: CLH

// worked examples, hepatocyte CLint included
INSERT INTO assay_data (molecule, experimental_value) VALUES
  ('C=CC(=O)N1C[C@@H](n2nc(C#Cc3cc4ncn(C5CC5)c4cc3Cl)c(C(N)=O)c2NC)C[C@@H]1COC', '14.4 µL/min/1e6 cells'),
  ('C=CC(=O)N1C[C@@H](n2nc(C#Cc3ccc4c(c3)ncn4C3CC3)c(C(N)=O)c2NC)C[C@@H]1COC', '6.6 µL/min/1e6 cells'),
  ('C=CC(=O)N1C[C@@H](n2nc(C#Cc3c(F)cc4c(ncn4C4CC4)c3F)c(C(N)=O)c2NC)C[C@@H]1COC [RESIGRATINIB]', '7.2 µL/min/1e6 cells');

Report hepatocyte CLint for C=CC(=O)N1C[C@@H](n2nc(C#Cc3cc4ncn(C5CC5)c4cc3F)c(C(N)=O)c2NC)C[C@@H]1COC please. 12 µL/min/1e6 cells

###

assay: Lipophilicity, logP of compound; assay type: physicochemical; conditions: octanol/water
Measurement type: logP
One number for each entry.

Report logP for C=CC(=O)N1C[C@@H](n2nc(C#Cc3c(F)cc4c(ncn4C4CC4)c3F)c(C(N)=O)c2NC)C[C@@H]1COC [RESIGRATINIB] please. 2.5

###

assay: Total clearance in Sprague-Dawley rat at 5 mg/kg,iv administrated at 0.25 to 24 hrs by LC-MS/MS analysis; assay type: ADME, organism-based; settings: in vivo, time 0.25-24 hrs
Measurement type: clearance (mL/min/kg)
Answers are plain numbers, in mL/min/kg.

INSERT INTO results (smiles_entry, experimental_value) VALUES
  ('C=CC(=O)N1C[C@@H](n2nc(C#Cc3c(F)cc4c(ncn4C4CC4)c3F)c(C(N)=O)c2NC)C[C@@H]1COC', 16.1),
  ('C=CC(=O)N1C[C@@H](n2nc(C#Cc3cc4ncn(C5CC5)c4cc3Cl)c(C(N)=O)c2NC)C[C@@H]1COC', 26.8),
  ('C=CC(=O)N1C[C@@H](n2nc(C#Cc3ccc4c(c3)ncn4C3CC3)c(C(N)=O)c2NC)C[C@@H]1COC', 26.1);

Next:
Report clearance for C=CC(=O)N1C[C@@H](n2nc(C#Cc3cc4ncn(C5CC5)c4cc3F)c(C(N)=O)c2NC)C[C@@H]1COC please. 25

###

test: Cmax in Sprague-Dawley rat at 15 mg/kg,po administrated at 0.25 to 24 hrs by LC-MS/MS analysis; assay type: ADME, organism-based; conditions: in vivo, time 0.25-24 hrs
Measurement type: Cmax (ng/mL)
Answers are plain numbers, in ng/mL.

INSERT INTO measurements (smiles_entry, measurement_type, experimental_value) VALUES
  ('C=CC(=O)N1C[C@@H](n2nc(C#Cc3cc4ncn(C5CC5)c4cc3Cl)c(C(N)=O)c2NC)C[C@@H]1COC', 'Cmax', 519),
  ('C=CC(=O)N1C[C@@H](n2nc(C#Cc3cc4ncn(C5CC5)c4cc3F)c(C(N)=O)c2NC)C[C@@H]1COC', 'Cmax', 760),
  ('C=CC(=O)N1C[C@@H](n2nc(C#Cc3ccc4c(c3)ncn4C3CC3)c(C(N)=O)c2NC)C[C@@H]1COC', 'Cmax', 1720);

Report Cmax for C=CC(=O)N1C[C@@H](n2nc(C#Cc3c(F)cc4c(ncn4C4CC4)c3F)c(C(N)=O)c2NC)C[C@@H]1COC please. 1490

###

test: Total clearance in Beagle dog at 5 mg/kg,iv administrated at 0.25 to 24 hrs by LC-MS/MS analysis; format: ADME, organism-based, Canis lupus familiaris; details: in vivo, time 0.25-24 hrs
Measurement type: clearance (mL/min/kg)
Give bare numbers, in mL/min/kg.

// worked examples, clearance included
INSERT INTO assay_data (smiles_entry, experimental_value) VALUES
  ('C=CC(=O)N1C[C@@H](n2nc(C#Cc3ccc4c(c3)ncn4C3CC3)c(C(N)=O)c2NC)C[C@@H]1COC', 31.1),
  ('C=CC(=O)N1C[C@@H](n2nc(C#Cc3cc4ncn(C5CC5)c4cc3F)c(C(N)=O)c2NC)C[C@@H]1COC', 31.8),
  ('C=CC(=O)N1C[C@@H](n2nc(C#Cc3c(F)cc4c(ncn4C4CC4)c3F)c(C(N)=O)c2NC)C[C@@H]1COC', 23.9);

Next:
Report clearance for C=CC(=O)N1C[C@@H](n2nc(C#Cc3cc4ncn(C5CC5)c4cc3Cl)c(C(N)=O)c2NC)C[C@@H]1COC please. 44.4

Hey, just so you know, these numbers are from ChEMBL document CHEMBL5537196.
